Biological target: human PDE4D3 (PDE4D) (Homo sapiens (Human), UniProt Q08499)
Sequence (Q08499 other isoform, or with tags, fused parts or gaps): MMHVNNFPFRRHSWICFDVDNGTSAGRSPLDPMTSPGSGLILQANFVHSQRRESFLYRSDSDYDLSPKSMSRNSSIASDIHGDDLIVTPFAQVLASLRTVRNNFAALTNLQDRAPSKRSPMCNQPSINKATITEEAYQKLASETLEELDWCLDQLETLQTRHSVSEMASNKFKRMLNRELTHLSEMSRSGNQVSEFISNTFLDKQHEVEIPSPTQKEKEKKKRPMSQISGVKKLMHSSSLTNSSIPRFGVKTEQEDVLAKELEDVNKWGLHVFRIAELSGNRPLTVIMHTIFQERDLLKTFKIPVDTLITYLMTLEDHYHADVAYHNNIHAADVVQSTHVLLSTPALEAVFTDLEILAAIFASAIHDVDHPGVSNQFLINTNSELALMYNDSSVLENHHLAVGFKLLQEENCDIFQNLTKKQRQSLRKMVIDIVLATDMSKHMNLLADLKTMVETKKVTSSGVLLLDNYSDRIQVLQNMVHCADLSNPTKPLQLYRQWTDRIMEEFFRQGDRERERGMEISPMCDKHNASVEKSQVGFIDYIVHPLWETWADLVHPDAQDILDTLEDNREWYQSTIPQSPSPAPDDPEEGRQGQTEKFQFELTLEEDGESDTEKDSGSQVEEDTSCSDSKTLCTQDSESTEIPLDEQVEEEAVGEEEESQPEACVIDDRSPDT
Test: Phosphodiesterase (PDE)4 inhibitory activity evaluation test ([3H]cAMP hydrolysis by PDE4D enzyme solution)
Assay type: biochemical
Details: recombinant human PDE4D3 expressed in COS-7 cells; [3H]cAMP substrate; 10 min at 30° C.; 2% DMSO
ENDPOINT: IC50

Just so you know, measured IC50 for CCOc1cccnc1C(=O)CCc1coc(-c2ccc(OC)c(OC3CCCC3)c2)n1 came out at < 50 nM

Just so you know, measured IC50 for C=CCCOc1cc(-c2nc(CCC(=O)c3ccccc3OCC)co2)ccc1OC(F)F came out at < 50 nM

Just so you know, measured IC50 for CCOc1ccccc1C(=O)CCc1coc(-c2ccc(OC)c(OCC(F)(F)F)c2)n1 came out at < 50 nM

Just so you know, measured IC50 for CCC(CC)Oc1cc(-c2nc(CNC(=O)c3ncccc3C)co2)ccc1OC came out at < 50 nM

Just so you know, measured IC50 for CCCOc1cc(-c2nc(CCC(=O)c3ncccc3C)co2)ccc1OC came out at < 50 nM

* * *

Test system: TNF-α production in mouse peripheral blood mononuclear cells
Assay: Inhibitory activity measurement on TNF-α production (LPS-stimulated mouse peripheral blood mononuclear cells, ELISA)
Format: cell-based, mouse (male BALB/c)
Conditions: PBMC, LPS 1 μg/ml, 5 hours at 37° C., ELISA of culture supernatant
ENDPOINT: IC50

Just so you know, measured IC50 for COc1ccc(-c2nc(CCC(=O)c3ncccc3OC)co2)cc1OCC1CC1 came out at < 50 nM

Just so you know, measured IC50 for COc1ccc(-c2nc(CNC(=O)c3c(F)cccc3OC)co2)cc1OCC1CC1 came out at < 50 nM

Just so you know, measured IC50 for COc1ccc(-c2nc(CCC(=O)c3ncccc3C)co2)cc1OC1C=CCCC1 (centres unmarked) came out at < 50 nM

Just so you know, measured IC50 for C=CCOc1ccccc1C(=O)CCc1coc(-c2ccc(OC)c(OCC3CC3)c2)n1 came out at < 50 nM

Just so you know, measured IC50 for COc1ccc(-c2nc(CNC(=O)c3ncccc3C)co2)cc1OC1CCCC1 came out at < 50 nM
